# ASSAY TEXT: Inhibition of HCV3a NS3/4A protease by time-resolved fluorescence assay
# Parameters: species or system Hepatitis C virus subtype 3a
EXPERIMENTAL READOUT: Ki (nM)

1. C=C[C@@H]1C[C@]1(NC(=O)[C@@H]1C[C@@H]2CN1C(=O)[C@H](C1CCCC1)NC(=O)OCC(C)(C)CCCc1cc3c(cc(OCc4csc(C)n4)nc3cc1OC)O2)C(=O)NS(=O)(=O)C1CC1	1.6
2. C=C[C@@H]1C[C@]1(NC(=O)[C@@H]1C[C@@H]2CN1C(=O)[C@H](C1CCCC1)NC(=O)OCC(C)(C)CCCc1cc3c(cc(OCc4ncco4)nc3cc1OC)O2)C(=O)NS(=O)(=O)C1CC1	1.1
3. C=C[C@@H]1C[C@]1(NC(=O)[C@@H]1C[C@@H]2CN1C(=O)[C@H](C1CCCCC1)NC(=O)OCC(C)(C)CCCc1cc3c(cc(OCc4csc(C)n4)nc3cc1OC)O2)C(=O)NS(=O)(=O)C1CC1	3.1
4. C=C[C@@H]1C[C@]1(NC(=O)[C@@H]1C[C@@H]2CN1C(=O)[C@H](C1CCCCC1)NC(=O)OCC(C)(C)CCCc1cc3c(cc(N4CCCCC4)nc3cc1OC)O2)C(=O)NS(=O)(=O)C1CC1	7.5
5. C=C[C@@H]1C[C@]1(NC(=O)[C@@H]1C[C@@H]2CN1C(=O)[C@H](C1CCCCC1)NC(=O)OCC(C)(C)CCCc1cc3c(cc(NC4CCCCC4)nc3cc1OC)O2)C(=O)NS(=O)(=O)C1CC1	7.6
6. C=C[C@@H]1C[C@]1(NC(=O)[C@@H]1C[C@@H]2CN1C(=O)[C@H](C1CCCC1)NC(=O)OCC(C)(C)CCCc1cc3c(nc4cc(C)ccc4c3cc1OC)O2)C(=O)NS(=O)(=O)C1CC1	1.9
7. C=C[C@@H]1C[C@]1(NC(=O)[C@@H]1C[C@@H]2CN1C(=O)[C@H](C1CCCCC1)NC(=O)OCC(C)(C)CCCc1cc3c(cc(O)nc3cc1OC)O2)C(=O)NS(=O)(=O)C1CC1	23
8. C=C[C@@H]1C[C@]1(NC(=O)[C@@H]1C[C@@H]2CN1C(=O)[C@H](C1CCCCC1)NC(=O)OCC(C)(C)CCCc1cc3c(cc(-c4ccccc4)nc3cc1OC)O2)C(=O)NS(=O)(=O)C1CC1	21

The measured values listed here are drawn from ChEMBL document CHEMBL2202958.
